tested on: HT29 colon; experiment: NCI tumour cell line growth inhibition, 48 h
Quick list: TGI per entry.
metric: TGI

1) CO[C@@]12CC(=O)/C(=C(O)\C=C\c3ccccc3)C(=O)[C@]1(OC)Cc1ccccc1O2 : > 100 µM
2) COc1ccc(/C(Cl)=C/c2ccc(Cl)c(Cl)c2)cc1 : 47.5 µM
3) CP(C)C.[Ag][I] : > 100 µM
4) CCOc1cc(NC(C)=O)ccc1C(=O)NN1C(=O)CSC1c1ccc(O)c(OC)c1 (stereo not given) : > 100 µM
5) CC(=O)N[C@@H](Cc1ccc(OP(=O)(O)O)cc1)C(=O)N[C@H]1CCC(=O)N2CCC[C@@H](C(=O)NCc3ccc(O)cc3)N2C1=O : > 25 µM

---

tested on: BT-549 breast; experiment: NCI tumour cell line growth inhibition, 48 h; in the data active = GI50 below about 0.43 µM; inactive = the rest
Classes used: active, inactive

1. CNCCOc1nc2c3cnccc3cc(-c3cc(OC)c(OC)c(OC)c3)c2c2ccncc12 : active
2. O=C(NO)c1cnc(N2CCN(S(=O)(=O)c3ccc4ccccc4c3)CC2)nc1 : inactive
3. CN(NC(=O)CC(=O)NN(C)C(=S)c1ccc(Cl)cc1)C(=S)c1ccc(Cl)cc1 : inactive
4. Oc1[nH]c2ccc(Cl)cc2c1/C=c1/ccc2c(c1)N=C(c1cc(F)cc(F)c1)N=2 : inactive
5. CC(C)CNc1nc(N=[N+]=[N-])nc(NCC(C)C)n1 : inactive
6. N#CC[C@H](C1CCCC1)n1cc(-c2ncnc3[nH]ccc23)cn1 : inactive
7. C=C(C)[C@@H]1CC[C@]2(C)[C@H](C=CC3=C4C[C@@](C)(CO)CC[C@]4(C)CC[C@]32C)[C@@]1(C)CCCN : inactive

---

test system: LOX IMVI melanoma; experiment: NCI tumour cell line growth inhibition, 48 h
Overview of reported TGI across a group of molecules:
metric: TGI

1) CO[C@]12C[C@H](CNC(=O)c3cc(Br)c(Br)[nH]3)O[C@H]1NC(=O)N2 : > 100 µM
2) COC(=O)c1cc(C)n(NC(=O)OC(C)(C)C)c1C : > 100 µM
3) CCCCCc1c(C)[nH]c(/C=c2\[nH]/c(=C3/C=c4ccccc4=N3)cc2OC)c1C : 0.0676 µM
4) N#CC12Cc3ccc4c(c3-c3cccc(c31)CCN2C(=O)c1ccccc1)OCO4 (stereo not drawn) : > 100 µM
5) Nc1cccc2nsnc12 : > 100 µM
6) COc1cccc(-c2cc(=O)c3cccnc3[nH]2)c1 : > 100 µM
7) O=C1c2ccccc2C(=O)c2sc(Nc3ccc(Cl)c(Cl)c3)nc21 : 4.73 µM
8) COC(=O)c1ccc(NCc2cc(O)ccc2O)cc1O : 32.1 µM
9) CC(C)[O-].CC(C)[O-].[O-]c1cccc2cccnc12.[O-]c1cccc2cccnc12.[Ti+4] : > 100 µM
10) c1ccc2c3nnc(c2c1)SCCSCCCSCCS3 : > 100 µM
11) COC(=O)/C(=N\O)C(C(=O)C=C(C)C)C(=O)C(=O)Nc1ccccc1C (stereo not drawn) : > 100 µM
12) O=C1CSC(/C=C/c2ccccc2)N1c1ccc(-n2c(-c3ccccc3)nc3ccccc3c2=O)cc1 (stereo not drawn) : > 100 µM
13) CCCCCC(=O)Cc1cc(OC)cc2c1C(=O)Oc1cc(O)c(C(=O)O)c(CC(=O)CCCCC)c1O2 : > 100 µM
